Hello, the source for this data is patent US20140087995A1, in case you need it.

Items are presented alongside their recorded IC50.
system_name: T1, human calcitonin receptor (human, UniProt P30988 25-474)
T1 construct: whole, on cells; also called hCTR; hCT
T1 sequence (looked up): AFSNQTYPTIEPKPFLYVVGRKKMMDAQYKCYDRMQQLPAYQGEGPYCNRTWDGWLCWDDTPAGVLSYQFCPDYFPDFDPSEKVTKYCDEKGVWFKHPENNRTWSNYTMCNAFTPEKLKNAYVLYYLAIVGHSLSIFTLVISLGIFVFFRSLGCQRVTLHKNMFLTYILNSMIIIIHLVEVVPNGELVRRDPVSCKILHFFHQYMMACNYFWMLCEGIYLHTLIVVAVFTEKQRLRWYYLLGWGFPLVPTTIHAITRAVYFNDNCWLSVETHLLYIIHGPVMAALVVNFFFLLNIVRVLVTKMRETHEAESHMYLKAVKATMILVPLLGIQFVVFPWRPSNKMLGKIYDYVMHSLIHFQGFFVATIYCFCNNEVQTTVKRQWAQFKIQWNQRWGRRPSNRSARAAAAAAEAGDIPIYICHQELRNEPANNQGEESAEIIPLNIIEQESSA
measurement_notes: SPA competition binding, membranes with human calcitonin receptor, displacement of 125I-calcitonin (Assay VII)
Numbered stars: 1 amine (or outer) side, 2 acyl side, 3 side chain; on linkers, the order of the positions; unused ones are H or OH. Bridge positions count the residues as written; N and C are the ends. Side chains are listed from the residue outwards. Ends that are not written are not given here. * marks the point of attachment. C20 diacid = O=C(O)CCCCCCCCCCCCCCCCCCC(=O)*; γGlu = O=C(O)[C@H](CCC(=O)[*:2])N[*:1]
Field: numeric (nM). Do not append units.

Here is how some binders turned out for IC50.
INSERT INTO results (binder, endpoint_label, value_observed) VALUES
  ('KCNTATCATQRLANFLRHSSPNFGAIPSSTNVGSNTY (C20 diacid-gGlu-2xOEG on the alpha amino group of the N-terminal residue; disulfide bridge Cys2-Cys7; C-terminal amide, also called compound 24)', 'IC50', 102),
  ('{C20 diacid-γGlu}-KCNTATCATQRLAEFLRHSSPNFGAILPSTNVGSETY-NH2 (disulfide 2-7, also called compound 33)', 'IC50', 3.61);

Alright, here's another binder for you.
So for K([γGlu-γGlu-C20 diacid])CNTATCATQRLAEFLRHSSPNFGAIPSSTNVGSNTP-NH2 (disulfide 2-7 (inferred), also called compound 13) , the logged IC50 turned out to be 0.305
